test system: MET; assay: MET biochemical kinase assay; set-up: species or system human; concentration or dose not given beside the values
quantity: Met Kinase % Inhibition
Include the unit right after the number.

input: What value of Met Kinase % Inhibition has been recorded for this entry: `CC(C)(C)c1cc(C=C2C(=O)Nc3c(Br)cc(Br)cc32)cc(Br)c1O`
output: 68.9%

input: Also need `CCc1c(C)[nH]c(C=C2C(=O)Nc3ccc(S(=O)(=O)NC)cc32)c1C` , thanks.
output: 71.8%

input: Also need `COc1cc(Br)cc(C=C2C(=O)Nc3ccc(S(=O)(=O)Nc4ccc(C(F)(F)F)cc4)cc32)c1O` , thanks.
output: 81.1%

input: Also need `Cc1c(O)ccc(C=C2C(=O)Nc3ccc(S(=O)(=O)Nc4ccc(C(F)(F)F)cc4)cc32)c1O` , thanks.
output: 80.8%

input: Also need `COc1c(C(C)C)cc(C=C2C(=O)Nc3ccc(I)cc32)cc1C(C)C` , thanks.
output: 58.1%

input: Also need `O=C1Nc2ccc(S(=O)(=O)N3CCOCC3)cc2C1=Cc1coc2c(Br)cc(Br)cc2c1=O` , thanks.
output: 71.1%

input: Also need `Cc1cc(C=C2C(=O)Nc3ccc(S(=O)(=O)Nc4ccc(C(F)(F)F)cc4)cc32)sc1C` , thanks.
output: 87.3%

input: Also need `Cc1c(Br)ccc2c1C(=Cc1ccc(N3CCN(C=O)CC3)cc1)C(=O)N2` , thanks.
output: 38.8%

input: Also need `CNS(=O)(=O)c1ccc2c(c1)C(=Cc1cccc(OC)c1OC)C(=O)N2` , thanks.
output: 17.3%

input: Also need `Cc1cc(C=C2C(=O)Nc3ccc(S(=O)(=O)Nc4ccc(C(F)(F)F)cc4)cc32)[nH]n1` , thanks.
output: 28.2%

input: Also need `CC(C)(C)c1cc(C=C2C(=O)Nc3ccc(CCCl)cc32)cc(Cl)c1O` , thanks.
output: 66.1%

input: Also need `O=C1Nc2ccc(I)cc2C1=Cc1cccnc1` , thanks.
output: 66.0%

input: Also need `CC(C)(C)c1cc(C=C2C(=O)Nc3c(Br)cc(Br)cc32)cc(Br)c1OCc1ccccc1` , thanks.
output: 32.7%

input: Also need `Cc1c(Br)ccc2c1C(=Cc1cc3ccccc3nc1Cl)C(=O)N2` , thanks.
output: 56.5%

input: Also need `O=C1Nc2ccc(CCCl)cc2C1=Cc1ccccc1O` , thanks.
output: 37.0%

input: Also need `CNS(=O)(=O)c1ccc2c(c1)C(=Cc1cc(C)c(OCc3ccccc3)c(C)c1)C(=O)N2` , thanks.
output: -6.8%

input: Also need `O=C1Nc2ccc(I)cc2C1=Cc1ccc(O)c(Br)c1` , thanks.
output: 94.3%

input: Also need `CNS(=O)(=O)c1ccc2c(c1)C(=Cc1ccc(F)cc1F)C(=O)N2` , thanks.
output: 32.4%

input: Also need `CCc1ccc(C=C2C(=O)Nc3ccc(S(=O)(=O)Nc4ccc(C(F)(F)F)cc4)cc32)s1` , thanks.
output: 41.5%

input: Also need `CCn1c2ccccc2c2cc(C=C3C(=O)Nc4ccc(Br)c(C)c43)ccc21` , thanks.
output: 11.1%

input: Also need `O=C1Nc2ccc(I)cc2C1=Cc1cc(O)c2c(c1O)CCCC2` , thanks.
output: 98.5%

input: Also need `O=C1Nc2ccc(S(=O)(=O)Nc3ccc(C(F)(F)F)cc3)cc2C1=Cc1ccc(O)c([N+](=O)[O-])c1` , thanks.
output: 85.8%

input: Also need `O=C1Nc2ccc(CCCl)cc2C1=Cc1c[nH]cn1` , thanks.
output: 25.7%

input: Also need `CC(C)(C)c1cc(C=C2C(=O)Nc3ccc(S(=O)(=O)Nc4ccc(C(F)(F)F)cc4)cc32)cc(Cl)c1O` , thanks.
output: 82.8%

input: Also need `COc1ccc(C=C2C(=O)Nc3ccc(S(=O)(=O)Nc4ccc(C(F)(F)F)cc4)cc32)cc1C(C)(C)C` , thanks.
output: 2.2%

input: Also need `Cc1cc(C=C2C(=O)Nc3ccc(Br)c(C)c32)[nH]n1` , thanks.
output: 31.7%

input: Also need `COc1cc(C=C2C(=O)Nc3ccc(S(=O)(=O)Nc4ccc(C(F)(F)F)cc4)cc32)cc2c1OCO2` , thanks.
output: 53.1%

input: Also need `Cc1ccsc1C=C1C(=O)Nc2ccc(CCCl)cc21` , thanks.
output: 22.6%

input: Also need `COc1cc(C=C2C(=O)Nc3c(Br)cc(Br)cc32)cc2c1OCO2` , thanks.
output: 58.8%

input: Also need `COc1cccc(C=C2C(=O)Nc3ccc(S(=O)(=O)Nc4ccc(C(F)(F)F)cc4)cc32)c1O` , thanks.
output: 76.8%

input: Also need `COc1cccc(O)c1C=C1C(=O)Nc2ccc(Br)c(C)c21` , thanks.
output: 22.8%

input: Also need `O=C1Nc2ccc(I)cc2C1=Cc1cc2c(cc1Cl)OCO2` , thanks.
output: 91.0%

input: Also need `COc1cc(C=C2C(=O)Nc3ccc(S(=O)(=O)Nc4ccc(C(F)(F)F)cc4)cc32)cc(OC)c1` , thanks.
output: 25.6%

input: Also need `Cc1cc(C=C2C(=O)Nc3c(Br)cc(Br)cc32)cc(C)c1OCc1ccccc1` , thanks.
output: 27.2%

input: Also need `CC(C)(C)c1cc(C=C2C(=O)Nc3ccc(S(=O)(=O)N4CCOCC4)cc32)ccc1OCc1ccccc1` , thanks.
output: 45.7%
